Tested on: NCI-H1048 cells
Experiment: MTT proliferation assay, NCI-H1048;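 further: Dose-response in 96-well plates over 8 or 10 concentration points, with exposure spanning 3-4 cell doublings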
Assay type: cell-based
Settings: 5 days compound exposure, 1:3 serial dilution starting at 10 μM
*1 amine or outer side, *2 acyl side, *3 side chain or, on linkers, in order; H or OH if unused. Where a SMILES comes first, the peptide text is derived from it. Bridges are numbered along the chain shown (N, C = ends). [ ]: non-standard residue; d: D form. The star is where a group is joined. NMePhe(2-(4-MorPh),5-Cl) = CN[C@@H](Cc1cc(Cl)ccc1-c1ccc(N2CCOCC2)cc1)C(=O)O; X35 = CN([C@@H](Cc1cc(Cl)ccc1-c1cnc2ccnn2c1)C(=O)[*:2])[*:1]; NMehhhLys(Me) = CN([C@@H](CCCCCCCN(C)[*:3])C(=O)[*:2])[*:1]; X174 = CN([C@@H](Cc1cc(Cl)cnc1-c1cnn(C)c1)C(=O)[*:2])[*:1]; X44 = Cc1nnc(-c2ccc(Cl)cc2C[C@@H](C(=O)[*:2])N(C)[*:1])o1; NMe(hhhLys) = CN([C@@H](CCCCCCCN[*:3])C(=O)[*:2])[*:1]; Oxane2carbonyl(2R-CF3) = O=C([C@@]1(C(F)(F)F)CCCCO1)*; Cyclobutanecarbonyl(1-CF3) = O=C(C1(C(F)(F)F)CCC1)*; Cyclopropanecarbonyl(1-CF3) = O=C(C1(C(F)(F)F)CC1)*; X88 = CC(C)c1ccc(Cl)cc1C[C@@H](C(=O)[*:2])N(C)[*:1]; cBuCO(3,3-F2-1-CF3) = O=C(C1(C(F)(F)F)CC(F)(F)C1)*; NMePhe(2,5-Cl2) = CN[C@@H](Cc1cc(Cl)ccc1Cl)C(=O)O; Pro(trans-4-F) = O=C(O)[C@@H]1C[C@@H](F)CN1; Gly(cPr) = N[C@H](C(=O)O)C1CC1
Each entry below lists one item and its recorded log10 of GI50 value.
Kindly note that the scale is log10 and the underlying GI50 is in nM.

Example entries begin here.
INSERT INTO assay_data (molecule, obsvalue) VALUES
  ('Cc1nnc(-c2ccc(Cl)cc2C[C@H]2C(=O)NCCCCCCC[C@H](N(C)C(=O)[C@@H](NC(=O)[C@@H]3C[C@@H](F)CN3C(=O)C3(C(F)(F)F)CCC3)C3CC3)C(=O)N[C@@H](CC(C)C)C(=O)N2C)o1 [Example 161] ({Cyclobutanecarbonyl(1-CF3)}-[Pro(trans-4-F)][Gly(cPr)][NMe(hhhLys)]L[X44]; lactam 3-C)', 1.30),
  ('CC(C)C[C@@H]1NC(=O)[C@@H](N(C)C(=O)[C@@H](NC(=O)[C@@H]2C[C@@H](F)CN2C(=O)C2(C(F)(F)F)CC(F)(F)C2)C2CC2)CCCCCCCNC(=O)[C@H](Cc2cc(Cl)ccc2-c2ccc(N3CCOCC3)cc2)N(C)C1=O [Example 333] ({cBuCO(3,3-F2-1-CF3)}-[Pro(trans-4-F)][Gly(cPr)][NMe(hhhLys)]L[NMePhe(2-(4-MorPh),5-Cl)]; lactam 3-C)', 1.00),
  ('CC(C)C[C@@H]1NC(=O)[C@@H](N(C)C(=O)[C@@H](NC(=O)[C@@H]2C[C@@H](F)CN2C(=O)C2(C(F)(F)F)CC2)C2CC2)CCCCCCCNC(=O)[C@H](Cc2cc(Cl)ccc2Cl)N(C)C1=O [Example 9] ({Cyclopropanecarbonyl(1-CF3)}-[Pro(trans-4-F)][Gly(cPr)][NMe(hhhLys)]L[NMePhe(2,5-Cl2)]; lactam 3-C)', 1.90),
  ('CC(C)C[C@@H]1NC(=O)[C@@H](N(C)C(=O)[C@@H](NC(=O)[C@@H]2C[C@@H](F)CN2C(=O)C2(C(F)(F)F)CC(F)(F)C2)C2CC2)CC=CCCCCN(C)C(=O)[C@H](Cc2cc(F)ccc2-c2cnn(C3CCOC3)c2)N(C)C1=O (stereo partly drawn) [Example 85]', 1.30),
  ('CC(C)C[C@@H]1NC(=O)[C@@H](N(C)C(=O)[C@@H](NC(=O)[C@@H]2C[C@@H](F)CN2C(=O)[C@@]2(C(F)(F)F)CCCCO2)C2CC2)CCCCCCCN(C)C(=O)[C@H](Cc2cc(Cl)cnc2-c2cnn(C)c2)N(C)C1=O [Example 248] ({Oxane2carbonyl(2R-CF3)}-[Pro(trans-4-F)][Gly(cPr)][NMehhhLys(Me)]L[X174]; lactam 3-C)', 1.60);

Q: Recorded log10 of GI50 of CC(C)C[C@@H]1NC(=O)[C@@H](N(C)C(=O)[C@@H](NC(=O)[C@@H]2C[C@@H](F)CN2C(=O)C2(C(F)(F)F)CC(F)(F)C2)C2CC2)CCCCCCCN(C)C(=O)[C@H](Cc2cc(Cl)ccc2-c2cnc3ccnn3c2)N(C)C1=O [Example 172] ({cBuCO(3,3-F2-1-CF3)}-[Pro(trans-4-F)][Gly(cPr)][NMehhhLys(Me)]L[X35]; lactam 3-C) , please.
Ans: 1.48

Q: Recorded log10 of GI50 of CC(C)C[C@@H]1NC(=O)[C@@H](N(C)C(=O)[C@@H](NC(=O)[C@@H]2C[C@@H](F)CN2C(=O)C2(C(F)(F)F)CC(F)(F)C2)C2CC2)CCCCCCCNC(=O)[C@H](Cc2cc(Cl)ccc2C(C)C)N(C)C1=O [Example 63] ({cBuCO(3,3-F2-1-CF3)}-[Pro(trans-4-F)][Gly(cPr)][NMe(hhhLys)]L[X88]; lactam 3-C) , please.
Ans: 2.04

Q: Recorded log10 of GI50 of COCn1cc(-c2ccc(Cl)cc2C[C@H]2C(=O)N(C)CCCCC=CC[C@H](N(C)C(=O)[C@@H](NC(=O)[C@@H]3C[C@@H](F)CN3C(=O)C3(C(F)(F)F)CC(F)(F)C3)C3CC3)C(=O)N[C@@H](CC(C)C)C(=O)N2C)cn1 [Example 79] , please.
Ans: 1.48
